TARGET OF ASSAY: Aurora-A kinase (Homo sapiens, UniProt O14965)
Construct: 6His (with spacer region and rTEV protease cleavage site from pFastBac HTc) (N); made in house; host or cells: Spodoptera frugiperda Sf21 insect cells (baculovirus, pFastBac HTc)
Sequence (O14965 whole entry): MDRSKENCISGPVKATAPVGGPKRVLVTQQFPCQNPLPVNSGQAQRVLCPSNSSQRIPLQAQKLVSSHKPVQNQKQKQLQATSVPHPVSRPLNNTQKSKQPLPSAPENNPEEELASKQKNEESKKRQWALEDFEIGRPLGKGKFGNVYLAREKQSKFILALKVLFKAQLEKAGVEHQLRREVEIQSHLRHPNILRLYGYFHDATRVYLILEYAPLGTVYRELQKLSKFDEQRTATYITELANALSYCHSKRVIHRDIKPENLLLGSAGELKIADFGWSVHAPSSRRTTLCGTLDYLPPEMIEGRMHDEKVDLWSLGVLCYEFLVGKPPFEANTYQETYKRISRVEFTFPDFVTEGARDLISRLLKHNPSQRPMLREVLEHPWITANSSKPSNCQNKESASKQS
RUN DESCRIPTION: In vitro Aurora-A kinase inhibition test
Assay type: biochemical
OBSERVED PROPERTY: pIC50
Numbers only, as −log10 of the molar value.

COc1cc2c(Nc3cc(CC(=O)Nc4cccc(F)c4)[nH]n3)ncnc2cc1OCCCN1CCC[C@H]1CO 8.00

Query: Answer with reported pIC50 of COc1cc2c(Nc3cc(CC(=O)Nc4cccc(F)c4)[nH]n3)ncnc2cc1OCCCN(C)CCO
Reply: 9.00
